# protocol details: Determination of bio-accumulation: urinary clearance pharmacokinetic study in rats
# settings: clinical signs of toxicity and gross necropsy 96 hours post-dose, oral gavage, 73 micro Moles per kg body weight

compound: N.O=C(O)C(F)(F)OC(F)(F)C(F)(OC(F)(F)C(F)(F)C(F)(F)F)C(F)(F)F (stereo not shown) [Compound C-3, CF3CF2CF2OCF(CF3)CF2OCF2COONH4, reference compound]
Compound-related Effects: Hepatomegaly

compound: N.O=C(O)C(F)(F)C(F)(F)OC(F)(F)C(F)(F)C(F)(F)C(F)(F)F
Compound-related Effects: Hepatomegaly

compound: N.O=C(O)C(F)(F)C(F)(F)C(F)(F)C(F)(F)C(F)(F)C(F)(F)C(F)(F)F [Compound C-1, C7F15COONH4, reference compound]
Compound-related Effects: Hepatomegaly

compound: N.O=C(O)C(F)(F)C(F)(F)C(F)(F)C(F)(F)C(F)(F)OC(F)C(F)(F)F (stereo not shown)
Compound-related Effects: Hepatomegaly
